Biological target: PUF4 RNA-binding domain (Pumilio homology domain) (Saccharomyces cerevisiae) (UniProt P25339)
Sequence: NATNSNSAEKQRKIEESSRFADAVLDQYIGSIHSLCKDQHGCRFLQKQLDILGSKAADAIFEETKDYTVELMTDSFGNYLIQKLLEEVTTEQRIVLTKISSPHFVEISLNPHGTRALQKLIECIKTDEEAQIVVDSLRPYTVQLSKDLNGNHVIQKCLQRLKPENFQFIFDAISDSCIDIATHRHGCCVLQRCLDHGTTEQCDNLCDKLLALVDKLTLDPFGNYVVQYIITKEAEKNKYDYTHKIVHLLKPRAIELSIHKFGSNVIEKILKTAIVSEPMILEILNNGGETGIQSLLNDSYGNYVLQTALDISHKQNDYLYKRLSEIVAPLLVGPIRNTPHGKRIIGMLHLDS
Experiment: RNA-MaP
Conditions: RNA-MaP: 20 mM Na-HEPES pH 7.4, 0.1% Tween-20, 5% glycerol, 0.1 mg/mL BSA, 2 mM DTT, low salt 0.75 mM MgCl2 + 30 mM KOAc (model data; high salt 2 mM MgCl2 + …)
Here the recorded Kd is given for each entry.

{"columns": ["RECORD SEQUENCE", "VALUE OPERATOR", "Kd / nM"],
 "data": [
  ["UGUAUAUUAU in S1a scaffold", "=", 0.88],
  ["UGUAUCGCAC in S1b scaffold", ">", 2400]
]}
